target: catalytic domain of human Bub1 (amino acids 704-1085) (Homo sapiens, UniProt O43683); construct: catalytic domain of human Bub1 (amino acids 704-1085); His6 (N); made in house; host or cells: Hi5 insect cells; test: Bub1 kinase assay (TR-FRET); type: biochemical; conditions: TR-FRET; ATP 10 μM, peptide substrate 1 μM; 60 min at 22° C.; average or median if tested more than once; read-out: Inhibition of Bub1 kinase IC50
Sequence (O43683 704-1085): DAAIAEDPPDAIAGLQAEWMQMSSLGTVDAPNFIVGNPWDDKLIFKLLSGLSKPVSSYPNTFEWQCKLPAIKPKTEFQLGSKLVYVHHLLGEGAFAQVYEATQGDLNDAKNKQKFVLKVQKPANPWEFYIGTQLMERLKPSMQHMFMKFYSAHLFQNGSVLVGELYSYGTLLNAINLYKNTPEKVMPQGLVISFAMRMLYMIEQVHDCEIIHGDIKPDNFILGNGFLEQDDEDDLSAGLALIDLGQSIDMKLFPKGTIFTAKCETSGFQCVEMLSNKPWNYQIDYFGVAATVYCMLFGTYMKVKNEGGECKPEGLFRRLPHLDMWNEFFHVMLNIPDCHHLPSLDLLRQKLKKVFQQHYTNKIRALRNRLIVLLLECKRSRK
Threshold-based label: IC50 under 7 nM gives rule met, IC50 not under 7 nM gives rule not met.

Exercise: Item CCN(CC)C(=O)N1CC(=O)c2c([nH]c(-c3ccnc(NC(=O)[C@@H]4C[C@@H]4F)c3)c2Nc2ccccc2)C1 : IC50 beneath 7 nM, strictly?
Solution: rule met

Exercise: Hi there! Is IC50 for CC(C)(C)OC(=O)N1CC(=O)c2c([nH]c(-c3ccnc(NC(=O)c4cnn[nH]4)c3)c2Nc2ccccc2)C1 below 7 nM, do you know?
Solution: rule not met

Exercise: Is the reported IC50 for CC(=O)Nc1cc(-c2[nH]c3c(c2Nc2ccccc2)C(=O)CN(C(=O)CC(C)(C)C)C3)ccn1 strictly below 7 nM?
Solution: rule not met

Exercise: Does this compound meet the criterion IC50 < 7 nM? CNC(=O)N1CC(=O)c2c([nH]c(-c3ccncc3OCC(F)F)c2Nc2ccccc2)C1
Solution: rule not met

Exercise: Determine whether this compound shows IC50 lower than 7 nM (ties excluded): CN(C)S(=O)(=O)N1CC(=O)c2c([nH]c(-c3ccnc(NC(=O)C4(F)CC4)c3)c2Nc2ccccc2)C1
Solution: rule not met

* * *

target: catalytic domain of human Bub1 (amino acids 704-1085) (Homo sapiens); construct: catalytic domain of human Bub1 (amino acids 704-1085); His6 (N); made in house; host or cells: Hi5 insect cells; experiment: Bub1 kinase assay (TR-FRET); type: biochemical; conditions: TR-FRET; ATP 10 μM, peptide substrate 1 μM; 60 min at 22° C.; average or median if tested more than once; read-out: Inhibition of Bub1 kinase IC50
# Y = IC50 below 9 nM (exclusive); N = IC50 at/above 9 nM

Example entries begin here.
compound: CC(=O)Nc1cc(-c2[nH]c3c(c2Nc2ccccc2)C(=O)CN(C(=O)CCO)C3)ccn1 [Example 189]
category label: N

compound: O=C1C[S+]([O-])Cc2[nH]c(-c3ccncc3)c(Nc3ccccc3)c21 (stereo not drawn) [Example 20]
category label: N

compound: CC(C)(C)C(=O)N1CC(=O)c2c([nH]c(-c3ccncc3)c2Nc2ccccc2)C1 [Example 9]
category label: Y

Exercise: Quick check: IC50 of CSCCC(=O)N1CC(=O)c2c([nH]c(-c3ccnc(NC(C)=O)c3)c2Nc2ccccc2)C1 [Example 192] under 9 nM?
Solution: N

Exercise: I wonder whether CC(=O)Nc1cc(-c2[nH]c3c(c2Nc2ccccc2)C(=O)CN(C(=O)N(C)C(C)C)C3)ccn1 [Example 186] has IC50 below 9 nM. Can you tell?
Solution: Y

Exercise: IC50 under 9 nM? Item: Cn1cnc(C(=O)N2CC(=O)c3c([nH]c(-c4ccncc4)c3Nc3ccccc3)C2)c1 [Example 60]
Solution: N

Exercise: Regarding CC(C)(C)OC(=O)N1CC(=O)c2c([nH]c(-c3ccnc(N)c3)c2Nc2ccccc2)C1 [Example 13] , kindly confirm whether its IC50 is beneath 9 nM.
Solution: N

Exercise: I'd appreciate it if you could check whether COC(=O)N1CC(=O)c2c([nH]c(-c3ccnc(NC(=O)C4CC4(F)F)c3)c2Nc2ccccc2)C1 (racemic) [Example 146] has IC50 smaller than 9 nM.
Solution: N

Exercise: Take the compound O=C1CN(S(=O)(=O)C2CCOCC2)Cc2[nH]c(-c3ccncc3)c(Nc3ccccc3)c21 [Example 70] and say whether its IC50 is less than 9 nM.
Solution: Y

Exercise: Is IC50 of CNC(=O)N1CC(=O)c2c([nH]c(-c3ccncc3OCC(F)(F)F)c2Nc2ccccc2)C1 [Example 243] strictly below 9 nM?
Solution: N

Exercise: IC50 strictly < 9 nM for this compound? COc1cc(C(=O)Nc2cc(-c3c(Nc4ccccc4)c4c(n3C)CN(C(=O)OC(C)(C)C)CC4=O)ccn2)ccc1F [Example 256]
Solution: N

Exercise: Quick check: IC50 of Cc1cnccc1-c1[nH]c2c(c1Nc1ccccc1)C(=O)COC2 [Example 40] under 9 nM?
Solution: N

Exercise: Problem: For the compound CC(=O)Nc1cc(-c2[nH]c3c(c2Nc2ccccc2)C(=O)CN(S(=O)(=O)CCO)C3)ccn1 [Example 188] , is IC50 under 9 nM?
Solution: Y

Exercise: Consider the compound O=C1CN(C(=O)c2cccnc2)Cc2[nH]c(-c3ccncc3)c(Nc3ccccc3)c21 [Example 62] . Is its IC50 strictly less than 9 nM?
Solution: N

Exercise: In plain terms, does CC(C)OC(=O)N1CC(=O)c2c([nH]c(-c3ccnc(NC(=O)C4CC4(F)F)c3)c2Nc2ccccc2)C1 (racemic) [Example 158] come in under 9 nM for IC50?
Solution: Y

Exercise: Find out if reported IC50 for COCCOc1cnccc1-c1[nH]c2c(c1Nc1ccccc1)C(=O)CN(S(=O)(=O)N(C)C)C2 [Example 280] is less than 9 nM
Solution: Y
